Assignment: determine reported inhibition for the given molecules.
- Study System: Bifunctional protein GlmU (Mycobacterium tuberculosis (strain ATCC 25618 / H37Rv)) (UniProt P9WMN3)
- Sequence (P9WMN3 whole entry, looked up): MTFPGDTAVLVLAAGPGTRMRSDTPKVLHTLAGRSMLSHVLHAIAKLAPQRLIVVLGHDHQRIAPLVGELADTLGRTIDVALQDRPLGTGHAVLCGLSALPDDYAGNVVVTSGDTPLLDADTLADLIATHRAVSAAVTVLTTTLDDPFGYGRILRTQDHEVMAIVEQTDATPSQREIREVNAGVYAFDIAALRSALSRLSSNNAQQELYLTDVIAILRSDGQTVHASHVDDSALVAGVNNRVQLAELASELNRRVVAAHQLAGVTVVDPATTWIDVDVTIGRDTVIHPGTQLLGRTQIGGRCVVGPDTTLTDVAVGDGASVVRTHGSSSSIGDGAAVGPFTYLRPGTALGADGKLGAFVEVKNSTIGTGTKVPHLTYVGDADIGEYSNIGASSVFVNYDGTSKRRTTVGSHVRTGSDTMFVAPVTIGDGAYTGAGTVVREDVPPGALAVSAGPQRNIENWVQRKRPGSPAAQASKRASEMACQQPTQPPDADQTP
- Measurement Protocol: inhibition of mycobacterial GlmU enzyme – biochemical, glucosamine-1-phosphate acetyltransferase (AID 1376);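 also: 0% = complete reaction with vehicle and 100% = reaction without substrate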
- Test Parameters: M. tuberculosis GlmU acetyltransferase enzyme assay; stronger effect = higher value;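 tested at 30 µM in the primary screen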
Screen size: about 220,000 compounds; about 530 (0.24%) were called active. The entries come from a sample that favours actives as a whole. Measured potencies and affinities stand elsewhere.
Just the number in %, nothing appended.

Challenge: Which inhibition is listed for "CC(C)(C)c1ccc(/C=N/Nc2cccc(C(=O)O)c2)cc1" ?
Response given: -6.54

Challenge: Again, but for "Cc1nn(-c2cccc(C(F)(F)F)c2)c(Cl)c1/C=N/Nc1cccc(C(=O)O)c1"
Response given: -2.39

Challenge: What do you have for "O=C1/C(=C/c2cccs2)SC(=S)N1NS(=O)(=O)c1ccccc1" ?
Response given: 11.6

Challenge: Another molecule to check: "O=C(O)c1cccc(N/N=C/c2ccc(-c3ccccc3)cc2)c1"
Response given: -0.74

Challenge: Also CC1CCc2sc(C(=O)OCC(=O)NCc3ccccc3)cc2C1 (stereo unspecified) , if possible.
Response given: -4.45

Challenge: Try "Cn1cnc([N+](=O)[O-])c1S(=O)(=O)c1cccc(Cl)c1" next.
Response given: 14.8

Challenge: And what about the molecule "Cn1cnc([N+](=O)[O-])c1Cl" ?
Response given: 2.48

Challenge: Then this molecule: "Cn1cccc1/C=C1\SC(=S)N(NC(=O)c2ccccc2O)C1=O"
Response given: 0.05

Challenge: Now the molecule "CC(=O)c1ccc(N2CCN(C(=O)Nc3cccc(F)c3)CC2)cc1"
Response given: -1.45

Challenge: Now consider "CCS(=O)(=O)c1c([N+](=O)[O-])ncn1C" .
Response given: 5.34

Challenge: What do you have for "Cc1nn(-c2ccccc2)c(Cl)c1/C=N/Nc1ccc(Cl)c(C(=O)O)c1" ?
Response given: -0.65

----------
Would you kindly list inhibition for each of these compounds?
- Study System: Bifunctional protein GlmU (Mycobacterium tuberculosis (strain ATCC 25618 / H37Rv))
- Measurement Protocol: inhibition of mycobacterial GlmU enzyme – biochemical, glucosamine-1-phosphate acetyltransferase (AID 1376);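 also: 0% = complete reaction with vehicle and 100% = reaction without substrate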
- Test Parameters: M. tuberculosis GlmU acetyltransferase enzyme assay; stronger effect = higher value;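 tested at 30 µM in the primary screen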
About 530 (0.24%) of roughly 220,000 compounds were called active. The sample holds actives, similar compounds and a random draw of the others, so the mix is not that of the screen. Results with a measured potency or affinity are listed apart.
Give just the number in %; leave the unit off.

Challenge: Find inhibition (Bifunctional protein GlmU (Mycobacterium tuberculosis (strain ATCC 25618 / H37Rv))) for the entry "O=C(NCc1ccc(C(=O)N2CCC3(CC2)OCCO3)cc1)c1cccc(Br)c1"
Response given: 1.96

Challenge: Same thing, different compound: COc1ccc(S(=O)(=O)NCC2CCCN(C(=O)CNC(C)=O)C2)cc1 (stereo not given)
Response given: -0.35

Challenge: Next compound up: "COc1ccc(C(=O)OCC(=O)Nc2cc(S(=O)(=O)N3CCOCC3)ccc2N2CCCC2)cc1"
Response given: 0.15

Challenge: One more compound: "CC(C)(C)NC(=O)NC(=O)COC(=O)c1ccc2c(c1)S(=O)(=O)N=C1CCCCCN12"
Response given: -5.9

Challenge: Same question for "O=C(O)CCSCC(=O)c1ccc2c(c1)OCCO2" please.
Response given: -0.32

Challenge: Cool, now "Cc1cc(C)n(-c2ccc(C(=O)OCC(=O)Nc3ccc(S(=O)(=O)N4CCCCC4)cc3)cc2)n1"
Response given: 0.24

Challenge: Quick one: "O=C(c1ccc2c(c1)OCO2)N1CCC2(CC1)OCCO2"
Response given: 5.09

Challenge: Repeat with "COc1ccc(-c2ccc(-c3noc(-c4ccco4)n3)c(OC)n2)cc1"
Response given: 1.18

Challenge: Follow-up item: "COc1ccc(OC)c(NC(=O)COC(=O)c2ccc(S(=O)(=O)N3CCOCC3)cc2)c1"
Response given: 14.5

Challenge: Also check "COc1ccc(S(=O)(=O)N2CCOCC2)cc1NC(=O)COC(=O)c1ccc(C)s1"
Response given: 0.67
